I'd appreciate it if you could supply HTLV-1 IN strand transfer activity (No drug = 100) values for the items below.
- assay.target: recombinant HTLV-1 IN (Human T-cell leukemia virus 1, UniProt P03362)
- Construct: made in house
- Sequence (P03362 1168-1462): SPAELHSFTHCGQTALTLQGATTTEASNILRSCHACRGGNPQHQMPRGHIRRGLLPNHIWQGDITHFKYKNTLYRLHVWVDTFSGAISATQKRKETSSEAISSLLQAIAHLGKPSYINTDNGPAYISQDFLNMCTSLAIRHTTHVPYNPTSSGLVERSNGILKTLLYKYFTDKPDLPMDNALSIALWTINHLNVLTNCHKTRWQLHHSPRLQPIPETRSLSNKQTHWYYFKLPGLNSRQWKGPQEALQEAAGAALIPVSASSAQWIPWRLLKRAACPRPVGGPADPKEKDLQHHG
- assay.remarks: In vitro integration strand transfer assay with HTLV-1 IN
- Assay type: biochemical
- experimental.context: INSTI at 634 nM; Replicate 2
Numbers only here, please. The scale is %.

In: Report HTLV-1 IN strand transfer activity (No drug = 100) on recombinant HTLV-1 IN (Human T-cell leukemia virus 1, UniProt P03362) for this entry: CN(C)C(=O)CCc1cnc2c(c1)c(N)c(C(=O)NCc1ccc(F)cc1F)c(=O)n2O [XZ450]
Out: 19.561

In: Report HTLV-1 IN strand transfer activity (No drug = 100) on recombinant HTLV-1 IN (Human T-cell leukemia virus 1, UniProt P03362) for this entry: O=C(NN1Cc2ccc(O)c(O)c2C1=O)c1cccc(O)c1O [XZ49]
Out: 88.3747

In: Report HTLV-1 IN strand transfer activity (No drug = 100) on recombinant HTLV-1 IN (Human T-cell leukemia virus 1, UniProt P03362) for this entry: CC(C)n1c(C(=O)N(C)C)c2c(c(O)c1=O)C(=O)N(Cc1ccc(F)c(Cl)c1)CC2 [XZ236, reference compound]
Out: 22.4849

In: Report HTLV-1 IN strand transfer activity (No drug = 100) on recombinant HTLV-1 IN (Human T-cell leukemia virus 1, UniProt P03362) for this entry: Nc1c(C(=O)NCc2ccc(F)cc2F)c(=O)n(O)c2nc(N3CCOCC3)ccc12 [XZ413]
Out: 92.8191

In: Report HTLV-1 IN strand transfer activity (No drug = 100) on recombinant HTLV-1 IN (Human T-cell leukemia virus 1, UniProt P03362) for this entry: [N-]=[N+]=NCc1cccc(C(=O)/C=C(\O)C(=O)O)c1 [XZ319]
Out: 92.5212

In: Report HTLV-1 IN strand transfer activity (No drug = 100) on recombinant HTLV-1 IN (Human T-cell leukemia virus 1, UniProt P03362) for this entry: CC(C)NC(=O)/C=C/c1cnc2c(c1)c(N)c(C(=O)NCc1ccc(F)cc1F)c(=O)n2O [XZ452]
Out: 23.2017

In: Report HTLV-1 IN strand transfer activity (No drug = 100) on recombinant HTLV-1 IN (Human T-cell leukemia virus 1, UniProt P03362) for this entry: Nc1c(C(=O)NCc2ccc(F)cc2F)c(=O)n(O)c2ncc(CCC(=O)NCCO)cc12 [XZ448]
Out: 23.674

In: Report HTLV-1 IN strand transfer activity (No drug = 100) on recombinant HTLV-1 IN (Human T-cell leukemia virus 1, UniProt P03362) for this entry: O=C(NCc1ccc(F)cc1F)c1c(O)c2cccnc2n(O)c1=O [XZ351]
Out: 57.1529

In: Report HTLV-1 IN strand transfer activity (No drug = 100) on recombinant HTLV-1 IN (Human T-cell leukemia virus 1, UniProt P03362) for this entry: Nc1c(C(=O)NCc2ccc(F)cc2F)c(=O)n(O)c2ncc(CCCOCCO)cc12 [XZ432]
Out: 21.9961

In: Report HTLV-1 IN strand transfer activity (No drug = 100) on recombinant HTLV-1 IN (Human T-cell leukemia virus 1, UniProt P03362) for this entry: O=C1c2ccc(O)c(O)c2C(=O)N1Cc1ccc(F)c(Cl)c1 [XZ89]
Out: 85.883

In: Report HTLV-1 IN strand transfer activity (No drug = 100) on recombinant HTLV-1 IN (Human T-cell leukemia virus 1, UniProt P03362) for this entry: Nc1c(C(=O)NCc2ccc(F)cc2F)c(=O)n(O)c2ncc(CCCO)cc12 [XZ423]
Out: 15.1459

In: Report HTLV-1 IN strand transfer activity (No drug = 100) on recombinant HTLV-1 IN (Human T-cell leukemia virus 1, UniProt P03362) for this entry: O=C(NCc1ccc(F)cc1F)c1c(NCCO)c2cc(CCCCCO)cnc2n(O)c1=O [XZ439]
Out: 29.3463

In: Report HTLV-1 IN strand transfer activity (No drug = 100) on recombinant HTLV-1 IN (Human T-cell leukemia virus 1, UniProt P03362) for this entry: O=C(NNC(=O)c1cccc(O)c1O)c1cccc(O)c1O [XZ15]
Out: 89.5316

In: Report HTLV-1 IN strand transfer activity (No drug = 100) on recombinant HTLV-1 IN (Human T-cell leukemia virus 1, UniProt P03362) for this entry: Cc1c2c(c(O)c(=O)n1C)C(=O)N(Cc1ccc(F)c(Cl)c1)C2=O [XZ202]
Out: 98.0594

In: Report HTLV-1 IN strand transfer activity (No drug = 100) on recombinant HTLV-1 IN (Human T-cell leukemia virus 1, UniProt P03362) for this entry: Cc1c2c(c(O)c(=O)n1Cc1ccc(F)c(Cl)c1)C(=O)N(C)C2=O [XZ242]
Out: 99.061

====

- assay.target: recombinant HTLV-1 IN (Human T-cell leukemia virus 1)
- Construct: made in house
- assay.remarks: In vitro integration strand transfer assay with HTLV-1 IN
- Format: biochemical
- experimental.context: INSTI at 634 nM; Replicate 1
- Experimental: We used in vitro strand transfer assays to screen this small molecule library for its ability to inhibit recombinant HTLV-1 IN. […] Proteins were degraded by incubation with 30 μg of proteinase K (Roche) at 37 °C for 1 h. […] The data were analysed and the IC50 calculated as previously described. In brief, the DNA band that corresponds to the concerted integration product was quantified by densitometry in ImageLab 4.1 (Bio-Rad). […] Quantified data points were fitted to dose–response curves in Prism 9. […]
I'd appreciate it if you could supply HTLV-1 IN strand transfer activity (No drug = 100) values for the items below.
Give me the value, and tack the unit on after it.

In: Fill in reported HTLV-1 IN strand transfer activity (No drug = 100) for this entry: `Nc1c(C(=O)NCc2ccc(F)cc2F)c(=O)n(O)c2ncc(CCCCCO)cc12`
Out: 14.8861%

In: Fill in reported HTLV-1 IN strand transfer activity (No drug = 100) for this entry: `Nc1c(C(=O)NCc2ccc(F)cc2F)c(=O)n(O)c2ncc(CCS(=O)(=O)c3ccccc3)cc12`
Out: 11.4924%

In: Fill in reported HTLV-1 IN strand transfer activity (No drug = 100) for this entry: CC(C)n1c(C(=O)N(C)C)c2c(c(O)c1=O)C(=O)N(Cc1ccc(F)c(Cl)c1)CC2 [XZ236, reference compound]
Out: 9.7581%

In: Fill in reported HTLV-1 IN strand transfer activity (No drug = 100) for this entry: `Nc1c(C(=O)NCc2ccc(F)cc2F)c(=O)n(O)c2nc(N3CCOCC3)ccc12`
Out: 103.686%

In: Fill in reported HTLV-1 IN strand transfer activity (No drug = 100) for this entry: `CN(C)C(=O)c1nc(O)c(O)c2c1CCN(Cc1ccc(F)c(Cl)c1)C2=O`
Out: 50.5732%

In: Fill in reported HTLV-1 IN strand transfer activity (No drug = 100) for this entry: `O=C(NCc1ccc(F)cc1F)c1c(NCCO)c2cc(CCCCCO)cnc2n(O)c1=O`
Out: 27.6089%

In: Fill in reported HTLV-1 IN strand transfer activity (No drug = 100) for this entry: `COC(=O)c1c(N)c2cccnc2n(O)c1=O`
Out: 111.483%

In: Fill in reported HTLV-1 IN strand transfer activity (No drug = 100) for this entry: `O=C1c2c(ccc(O)c2O)CN1Cc1ccc(F)c(Cl)c1`
Out: 47.6981%

In: Fill in reported HTLV-1 IN strand transfer activity (No drug = 100) for this entry: `Cc1nnc(C(=O)NC(C)(C)c2nc(C(=O)NCc3ccc(F)cc3)c(O)c(=O)n2C)o1`
Out: 34.4506%

====

I'd appreciate it if you could supply HTLV-1 IN strand transfer activity (No drug = 100) values for the items below.
- assay.target: recombinant HTLV-1 IN (Human T-cell leukemia virus 1)
- Construct: made in house
- assay.remarks: In vitro integration strand transfer assay with HTLV-1 IN
- Format: biochemical
- experimental.context: INSTI at 634 nM; Replicate 3
Numbers only here, please. The scale is %.

In: Fill in reported HTLV-1 IN strand transfer activity (No drug = 100) for this entry: `Nc1c(C(=O)NCc2ccc(F)cc2F)c(=O)n(O)c2ncc(CCCCCO)cc12`
Out: 21.3921

In: Fill in reported HTLV-1 IN strand transfer activity (No drug = 100) for this entry: `CN(C)C(=O)c1nc(O)c(O)c2c1CCN(Cc1ccc(F)c(Cl)c1)C2=O`
Out: 62.5799

In: Fill in reported HTLV-1 IN strand transfer activity (No drug = 100) for this entry: `O=C(NN1Cc2ccc(O)c(O)c2C1=O)c1cccc(O)c1O`
Out: 109.808

In: Fill in reported HTLV-1 IN strand transfer activity (No drug = 100) for this entry: `CN(C)C(=O)CCc1cnc2c(c1)c(N)c(C(=O)NCc1ccc(F)cc1F)c(=O)n2O`
Out: 9.5729

In: Fill in reported HTLV-1 IN strand transfer activity (No drug = 100) for this entry: `Nc1c(C(=O)NCc2ccc(F)cc2F)c(=O)n(O)c2ncc(CCCOCCO)cc12`
Out: 19.5014

In: Fill in reported HTLV-1 IN strand transfer activity (No drug = 100) for this entry: `Cc1c2c(c(O)c(=O)n1C)C(=O)N(Cc1ccc(F)c(Cl)c1)C2=O`
Out: 97.9688

In: Fill in reported HTLV-1 IN strand transfer activity (No drug = 100) for this entry: `O=C(NNC(=O)c1cccc(O)c1O)c1cccc(O)c1O`
Out: 92.2753

In: Fill in reported HTLV-1 IN strand transfer activity (No drug = 100) for this entry: `O=C1c2ccc(O)c(O)c2C(=O)N1Cc1ccc(F)c(Cl)c1`
Out: 98.5818

In: Fill in reported HTLV-1 IN strand transfer activity (No drug = 100) for this entry: `O=C(NCc1ccc(F)cc1F)c1c(NCCO)c2cc(CCCCCO)cnc2n(O)c1=O`
Out: 25.7676

In: Fill in reported HTLV-1 IN strand transfer activity (No drug = 100) for this entry: `CN(C)S(=O)(=O)c1cc(O)c(O)c2c1CN(Cc1ccc(F)c(Cl)c1)C2=O`
Out: 68.9907

In: Fill in reported HTLV-1 IN strand transfer activity (No drug = 100) for this entry: `O=C(NNC(=O)c1cccc(O)c1O)c1ccccc1O`
Out: 100.183

In: Fill in reported HTLV-1 IN strand transfer activity (No drug = 100) for this entry: `Nc1c(C(=O)NCc2ccc(F)cc2F)c(=O)n(O)c2ncc(CCS(=O)(=O)c3ccccc3)cc12`
Out: 15.1675

In: Fill in reported HTLV-1 IN strand transfer activity (No drug = 100) for this entry: `COC(=O)CCc1cnc2c(c1)c(N)c(C(=O)NCc1ccc(F)cc1F)c(=O)n2O`
Out: 15.311

In: Fill in reported HTLV-1 IN strand transfer activity (No drug = 100) for this entry: `COC(=O)c1c(Nc2ccc(-c3ccc(N)cc3)cc2)c2cccnc2n(O)c1=O`
Out: 89.3626

In: Fill in reported HTLV-1 IN strand transfer activity (No drug = 100) for this entry: `O=C(NCc1ccc(F)cc1F)c1c(NCCO)c2cccnc2n(O)c1=O`
Out: 36.7031

In: Fill in reported HTLV-1 IN strand transfer activity (No drug = 100) for this entry: `CCN1CCn2c(c3c(c(O)c2=O)C(=O)N(Cc2ccc(F)c(Cl)c2)C3=O)C1=O`
Out: 114.376

In: Fill in reported HTLV-1 IN strand transfer activity (No drug = 100) for this entry: `Nc1c(C(=O)NCc2ccc(F)cc2F)c(=O)n(O)c2ncc(CCCCCCO)cc12`
Out: 19.9322

In: Fill in reported HTLV-1 IN strand transfer activity (No drug = 100) for this entry: `CC(C)NC(=O)/C=C/c1cnc2c(c1)c(N)c(C(=O)NCc1ccc(F)cc1F)c(=O)n2O`
Out: 17.2877
